- assay procedure: pKa, pI and % salt of peptidic buffers
- Type: physicochemical
- measurement parameters: Table 2, first basic pKa
Peptide text beside a SMILES is read from it.
assay metric: pka B (basic pKa)
Answers are plain numbers.

compound	pka B (basic pKa)
NCC(O)CC[C@H](N)C(=O)N[C@@H](Cc1c[nH]cn1)C(=O)O (stereo partly shown) [Hydroxylysine-His]	6.71

Give pka B (basic pKa) for each listed item.
1. NCCCC[C@H](N)C(=O)N[C@@H](Cc1c[nH]cn1)C(=O)O [Lys-His]
2. NCCCC[C@H](N)C(=O)N[C@@H](CC(=O)O)C(=O)O [Lys-Asp] (H-Lys-Asp-OH; N-terminus and C-terminus assumed)
3. N[C@@H](Cc1c[nH]cn1)C(=O)N1CC(O)C[C@H]1C(=O)O (stereo partly shown) [His-Hydroxyproline]
4. NCCCC[C@H](NC(=O)[C@@H](N)CCC(=O)O)C(=O)O [Glu-Lys] (H-Glu-Lys-OH; N-terminus and C-terminus assumed)
5. N=C(N)NCCC[C@H](N)C(=O)N[C@@H](CC(=O)O)C(=O)O [Arg-Asp] (H-Arg-Asp-OH; N-terminus and C-terminus assumed)
6. CC[C@H](C)[C@H](N)C(=O)N[C@@H](Cc1c[nH]cn1)C(=O)O [Isoleucine-His] (H-Ile-His-OH; N-terminus and C-terminus assumed)

Reply |
[6.71, 8.05, 6.10, 7.94, 8.05, 6.71]
